FYI, the data here is from patent US12473289B2.

Measured pIC50, listed per entry for reference.
biological target: Delta-5-Desaturase (D5D) (Homo sapiens (Human), UniProt O60427); assay: In vitro measurement of Delta-5-Desaturase inhibitory activity using DGLA-CoA and Arachidonyl-CoA mass spectrometric assays; conditions: membrane preparations of D5D-overexpressing HEK293 6E cells; averaged over at least two independent runs
Sequence (O60427 whole entry, species assumed): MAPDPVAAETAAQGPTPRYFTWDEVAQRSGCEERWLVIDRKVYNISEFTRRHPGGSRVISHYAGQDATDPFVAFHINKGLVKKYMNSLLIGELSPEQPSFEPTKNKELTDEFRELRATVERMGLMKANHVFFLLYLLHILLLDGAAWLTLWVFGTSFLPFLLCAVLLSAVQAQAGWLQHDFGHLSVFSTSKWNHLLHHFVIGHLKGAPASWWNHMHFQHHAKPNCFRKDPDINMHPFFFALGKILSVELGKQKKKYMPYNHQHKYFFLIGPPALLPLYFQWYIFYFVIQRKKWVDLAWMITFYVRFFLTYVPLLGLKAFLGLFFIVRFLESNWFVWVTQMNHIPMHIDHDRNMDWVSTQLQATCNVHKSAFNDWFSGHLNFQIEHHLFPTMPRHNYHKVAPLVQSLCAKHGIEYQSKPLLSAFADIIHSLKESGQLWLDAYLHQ
Field pIC50 (float): negative decimal logarithm of the concentration in molar.

Query string: Recall the reported pIC50 of `COc1ccn2c(=O)c(-c3ccc(OCC(F)(F)F)cc3)c(CF)nc2c1` on Delta-5-Desaturase (D5D) (Homo sapiens (Human), UniProt O60427) and write it down.
Result string: 7.18

Query string: Please report the measured pIC50 for `Cc1cc2nc(C(F)(F)F)c(-c3cnn(CC(F)(F)C(F)(F)F)c3)c(=O)n2nc1C` tested on Delta-5-Desaturase (D5D) (Homo sapiens (Human), UniProt O60427).
Result string: 5.17

Query string: Provide Delta-5-Desaturase (D5D) (Homo sapiens (Human), UniProt O60427) pIC50 reading for `O=c1c(-c2cnn(CCC(F)(F)F)c2)c(C(F)(F)F)nc2n1CCOC2` .
Result string: 5.97

Query string: Specify pIC50 for `CCc1nc2cc(OC)ccn2c(=O)c1-c1ccc(OCC(F)(F)F)cc1` , system Delta-5-Desaturase (D5D) (Homo sapiens (Human), UniProt O60427).
Result string: 8.18

Query string: Give pIC50 only, for `C[S@@+]([O-])c1ccn2c(=O)c(-c3ccc(OCC(F)(F)F)cc3)c(C(F)(F)F)nc2c1` , using Delta-5-Desaturase (D5D) (Homo sapiens (Human), UniProt O60427) data.
Result string: 6.25

Query string: GET pIC50 | system: Delta-5-Desaturase (D5D) (Homo sapiens (Human), UniProt O60427) | item: `Cn1c(=O)c(F)cn2c(=O)c(-c3cnn(CC(F)(F)C(F)(F)F)c3)c(C(F)(F)F)nc12`
Result string: 7.36

Query string: Param request: pIC50 | system Delta-5-Desaturase (D5D) (Homo sapiens (Human), UniProt O60427) | item `COc1ccn2c(=O)c(-c3ccc(CCC(F)(F)F)cc3)c(C(F)(F)F)nc2c1`
Result string: 7.92

Query string: Provide pIC50, tested on Delta-5-Desaturase (D5D) (Homo sapiens (Human), UniProt O60427), for `O=c1c(-c2cnn(CC(F)(F)C(F)(F)F)c2)c(C(F)(F)F)nc2ccc(F)cn12` .
Result string: 8.68
